I'd appreciate it if you could supply inhibition values for the items below.
Biological target: Mycothiol S-conjugate amidase (Mycobacterium tuberculosis) (UniProt P9WJN1)
Sequence (P9WJN1 whole entry): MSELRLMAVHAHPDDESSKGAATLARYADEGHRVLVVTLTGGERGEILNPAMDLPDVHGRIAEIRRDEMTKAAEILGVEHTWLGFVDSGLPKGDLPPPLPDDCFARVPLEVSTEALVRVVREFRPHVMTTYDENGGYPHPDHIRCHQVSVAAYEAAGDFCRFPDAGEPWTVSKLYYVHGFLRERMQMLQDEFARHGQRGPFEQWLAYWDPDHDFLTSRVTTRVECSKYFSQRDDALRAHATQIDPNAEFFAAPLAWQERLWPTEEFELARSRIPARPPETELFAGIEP
Assay: Inhibition of Mycobacterium tuberculosis MCA at 50 uM
Form entry: value (%) — number only.

Param item = `CCCSc1cc(C(=O)N[C@H]2[C@@H](O[C@@H]3C[C@](O)(CO)C[C@@H](O)[C@H]3O)O[C@H](CO)[C@@H](O)[C@@H]2O)ccn1` ; retrieve measured inhibition.
15

Entry under review: `O=C(N[C@H]1[C@@H](O[C@@H]2C[C@](O)(CO)C[C@@H](O)[C@H]2O)O[C@H](CO)[C@@H](O)[C@@H]1O)c1ccc(C(F)(F)F)cc1` . Reported inhibition?
16

Looking for the measured inhibition of `CC(C)S(=O)(=O)c1csc(C(=O)N[C@H]2[C@@H](O[C@@H]3C[C@](O)(CO)C[C@@H](O)[C@H]3O)O[C@H](CO)[C@@H](O)[C@@H]2O)c1Cl` , can you help?
11

Which inhibition is listed for `CN(C)c1ccc(C(=O)N[C@H]2[C@@H](O[C@@H]3C[C@](O)(CO)C[C@@H](O)[C@H]3O)O[C@H](CO)[C@@H](O)[C@@H]2O)cc1` ?
44

Record request: inhibition value, item `O=C(N[C@H]1[C@@H](O[C@@H]2C[C@](O)(CO)C[C@@H](O)[C@H]2O)O[C@H](CO)[C@@H](O)[C@@H]1O)c1ccc2ccccc2c1`
13

Using the record for `O=C(N[C@H]1[C@@H](O[C@@H]2C[C@](O)(CO)C[C@@H](O)[C@H]2O)O[C@H](CO)[C@@H](O)[C@@H]1O)c1cccnc1Sc1ccc(Cl)cc1` , report its inhibition.
10

Param item = `O=C(N[C@H]1[C@@H](O[C@@H]2C[C@](O)(CO)C[C@@H](O)[C@H]2O)O[C@H](CO)[C@@H](O)[C@@H]1O)C1CC1` ; retrieve measured inhibition.
13

Fill in: inhibition of `CCCc1c(C(=O)N[C@H]2[C@@H](O[C@@H]3C[C@](O)(CO)C[C@@H](O)[C@H]3O)O[C@H](CO)[C@@H](O)[C@@H]2O)cnn1-c1cc(Cl)cc(Cl)c1` is ___
26

What measured inhibition goes with `O=C(N[C@H]1[C@@H](O[C@@H]2C[C@](O)(CO)C[C@@H](O)[C@H]2O)O[C@H](CO)[C@@H](O)[C@@H]1O)c1cccs1` ?
13
